Would you mind telling me the reported TGI of each entry?
Test system: KM12 colon
Test: NCI tumour cell line growth inhibition, 48 h

# annotated cases, reported TGI shown
Look at this compound and give its reported TGI. C=C1CC(OC)(C(OC)C(=O)N[C@H]2OCO[C@H]3C2O[C@H](C[C@@H](COC)OC)C(C)(C)C3OC)O[C@H](C)[C@@H]1C (stereo partly drawn)
> 47 µM

What value of TGI has been reported for the following compound? S=C1NC2=C(CSC/C2=C\c2ccc(Cl)cc2)C(c2ccc(Cl)cc2)N1 (stereo not drawn)
> 100 µM

Fill blank: measured TGI of the compound "CCN1CCN(c2nc(C)cc(NCc3cc(Nc4ccnc5cc(Cl)ccc45)ccc3F)n2)CC1" is ____.
10.5 µM

Request the reported TGI associated with "O[C@@]1(C#Cc2ccc3c(c2)OCO3)CCC[C@H]1NCc1ccccc1"
42.7 µM

Please state TGI for every compound in the list that follows.
1. COc1ccc2c(c1)C(=Nc1ccc(F)c(Cl)c1)c1c-2c(Nc2ccc(F)c(Cl)c2)nc2ccccc12
2. Cc1ccc(Nc2cccc3c2C(=O)c2cccc(Nc4ccc(C)cc4S(=O)(=O)O)c2C3=O)c(S(=O)(=O)O)c1
3. CC(=O)OCC1(C)C(O)CCC2(C)C1CCC1CC3CC12CCC3(O)CO (stereo not drawn)
4. CC1(c2ccccc2)O[C@@H]2C[C@H]3[C@@H]4CCC5=CC(=O)C=C[C@]5(C)[C@@]4(F)[C@@H](O)C[C@]3(C)[C@]2(C(=O)CO)O1 (stereo partly drawn)

1: > 100 µM; 2: > 100 µM; 3: > 100 µM; 4: 30 µM

Please supply TGI for each of the following items, keeping them in order.
1. O=C1c2ccccc2C(=O)N1CCCOCc1c[nH]c(=O)[nH]c1=O
2. COc1cc2c(cc1OC)C(C(CCCCCC(CCC(C)C)C1NCCc3cc(OC)c(OC)cc31)CCC(C)C)NCC2 (stereo not drawn)
3. O=C1CSC(c2ccccc2O)N1c1ccc2c(c1)Oc1c(Cl)c3c(c(Cl)c1=N2)Oc1cc(N2C(=O)CSC2c2ccccc2O)ccc1N=3 (stereo not drawn)
4. Cc1ccccc1NC(=O)Cc1nc2ccccc2s1
5. C/C(O)=C(\C=N\C(=S)N=Nc1c(O)[nH]c2ccccc12)C(=O)Nc1ccccc1C
6. O/N=C(\CC(O)(C(F)(F)F)C(F)(F)F)c1cccs1

> 100 µM
1.26 µM
> 100 µM
31.3 µM
> 100 µM
> 10 µM

* * *

Tested on: K-562 leukemia
Assay: NCI tumour cell line growth inhibition, 48 h; in the data active = GI50 below about 0.43 µM; inactive = the rest
Output constraint: value belongs to 1 (yes) (active), 0 (no) (inactive)

Query: recorded result category for "COC(=O)[C@H](Cc1cn(C)cn1)NC(=O)[C@H](CC(=O)OCc1ccccc1)NC(=O)Nc1cc(C(F)(F)F)cc(C(F)(F)F)c1" in this test
0 (no)

Per the records of this test, what outcome belongs to "Nc1ccccc1C#C/C=C\C#Cc1ccccc1C#CCO" ?
0 (no)

Which outcome did this test record for the compound "Oc1ccc2c(=S)cc(-c3ccc(Br)cc3)oc2c1O" ?
0 (no)

Call for entry CC12OC(CC(O)C1O)n1c3ccccc3c3c4c(c5c6ccccc6n2c5c31)C(=O)N(CCN1CCOCC1)C4=O (stereo unspecified) :
0 (no)

Record request — test call for "COc1ccc(Cn2cc(COc3cc(/C=C/C(=O)c4cc(OC)c(OC)c(OC)c4)ccc3OC)nn2)cc1"
0 (no)

Now consider the entry below.
Record lookup: outcome of this test for Cc1ccc(N)cc1[As]=[As]c1cc(N)ccc1C (stereo unspecified) ?
1 (yes)

* * *

System: T-47D breast
Assay: NCI tumour cell line growth inhibition, 48 h; in the data active = GI50 below about 0.43 µM; inactive = the rest
Use one of these outcomes when replying: 1.0 for active, 0.0 for inactive

Some solved cases for reference:
Write down the call the test reported for this compound. Item: "CCOc1cc(-c2nncn2C)ccc1Nc1ncc2cc(C)nc(NCC(C)(C)C)c2n1"
0.0

Just curious, what result did "O=C(Nc1nc(-c2ccc(Cl)cc2)cs1)c1cc(O)c(O)c(O)c1" get here?
0.0

Recorded test call requested for "C[C@@H](Nc1cc(F)cc(F)c1)c1cc(C(=O)N(C)C)cc2c(=O)cc(N3CCOCC3)oc12"
1.0

Next item in the queue.
Answer briefly: the call reported for "Oc1ccc2c(=S)cc(-c3ccc(Br)cc3)oc2c1O" in this assay.
0.0

* * *

Would you mind telling me the reported TGI of each entry?
Tested on: COLO 205 colon
Test: NCI tumour cell line growth inhibition, 48 h
Where a SMILES comes first, the peptide text is derived from it. [ ]: non-standard residue; d: D form. The star is where a group is joined. ξ: configuration not given here. ξNMeF = CNC(Cc1ccccc1)C(=O)O; NMeV = CN[C@H](C(=O)O)C(C)C; Boc = CC(C)(C)OC(=O)*; OBn = c1ccc(CO*)cc1

I would be grateful if you could share the reported TGI for "COc1ccc2c(c1)C(=Nc1ccc(F)c(Cl)c1)c1c-2c(Nc2ccc(F)c(Cl)c2)nc2ccccc12" .
> 100 µM

Report TGI for "C=C1N(S(=O)(=O)c2ccc(C)cc2)C(=O)OCC12CCCC2" please.
> 100 µM

Any idea what TGI was measured for CCCCN=NNc1cn(C2OC(CO)C(O)C2O)c(=O)[nH]c1=O (stereo not drawn) ?
> 100 µM

What value of TGI has been recorded for this entry: "COc1cc(C(=O)/C=C/c2cc(-c3ccc4c(c3)OCO4)n[nH]2)cc(OC)c1OC"
4.66 µM

I am curious: what TGI value has been reported for "O/N=C(\CC(O)(C(F)(F)F)C(F)(F)F)c1cccs1" ?
> 10 µM

For every record below, what is its TGI?
1. CC(C)[C@@H](C(=O)N(C)[C@H](C(=O)N1CCC[C@H]1C(=O)OCc1ccccc1)C(C)C)N(C)C(=O)C(Cc1ccccc1)N(C)C(=O)[C@H](NC(=O)OC(C)(C)C)C(C)C (stereo partly drawn) (Boc-[dV][ξNMeF][NMeV][NMeV]P-OBn)
2. C/C=C/c1cc2c(cc1O)CC[C@@H]1[C@@H]2CC[C@]2(C)[C@@H](O)CC[C@@H]12
3. CCN(CC)C1Oc2cc3c(cc2C(c2cc(OC)c(O)c(OC)c2)C1C)OCO3 (stereo not drawn)

1: > 100 µM; 2: 24.4 µM; 3: 31.8 µM

* * *

Tested on: OVCAR-4 ovarian
Experiment: NCI tumour cell line growth inhibition, 48 h
Give measured TGI for each item. Keep answers brief.
Numbers only, in µM.

Would you be so kind as to report TGI for each listed record?
1. CCN(CC)CCNc1ccc2ncn3c4ccc(OC)cc4c(=O)c1c23
2. COc1cc2c(cc1OC)C(C(CCCCCC(CCC(C)C)C1NCCc3cc(OC)c(OC)cc31)CCC(C)C)NCC2 (stereo not given)

1: 8.89; 2: 2.92

* * *

System: IGROV1 ovarian
Assay: NCI tumour cell line growth inhibition, 48 h
Where a SMILES comes first, the peptide text is derived from it. [ ]: non-standard residue; d: D form. ΔPro = O=C(O)[CH]1C=CCN1
For each of the compounds below, state its TGI.

State recorded TGI for all listed compounds.
1. CC(C)(C)[Si](C)(C)OCC1OC(n2cnc3c(=O)[nH]cnc32)CC1O (stereo unspecified)
2. CN(c1ccccc1)c1cc2ccccc2nn1
3. C=C1c2nc3ccccc3n2C=C(c2cccc(Cl)c2)N1Cc1ccc(OC)cc1
4. COc1ccc(Cc2cc(Cc3ccc(OC)cc3)cc(Cc3ccc(OC)cc3)c2)cc1

1. > 100 µM
2. > 100 µM
3. 15.8 µM
4. > 100 µM

Hey, can you go through the list below and give me TGI for every item?
1. O=C(O)C1C=CCN1C(=O)C1C=CCN1C(=O)C1C=CCN1 (stereo unspecified) (H-[ΔPro]-[ΔPro]-[ΔPro]-OH; configuration not given here)
2. CN1CCN(c2cc3nc(-c4ccc(Cl)cc4)[nH]c3cc2F)CC1
3. Cc1nc2sc(C(=O)Nc3cccc(Br)c3C)c(N)c2cc1C(O)c1ccccc1 (stereo unspecified)
4. COc1cc(-c2nn(-c3ccc(NC(=O)Nc4cc(C(F)(F)F)cc(C(F)(F)F)c4)cc3)cc2-c2ccncc2)ccc1Cl
5. Clc1sc(Cl)c2c1[C@H](Cl)C[C@@H]2Cl

1. > 100 µM
2. 36.1 µM
3. 13.2 µM
4. 8.25 µM
5. 38.6 µM

Below are 2 compounds. Give each one its TGI.
1. NC(=O)c1c(NC(=O)c2cccs2)sc2c1CCC(=O)C2
2. Cc1cc(O)c2c(c1)C(=O)c1c(c(O)cc(O)c1-c1c(O)cc(O)c3c1C(=O)c1cc(C)cc(O)c1C3=O)C2=O

36.7 µM
52.6 µM

* * *

Heads up, these compounds all have GI50 values measured for U251 CNS.

Consider the reported GI50 for these compounds:
What value of GI50 has been recorded for this entry: "CCOc1cc(-c2nncn2C)ccc1Nc1ncc2cc(C)nc(NCC(C)(C)C)c2n1"
> 100 µM

Given the compound "Cn1c(CCCC(=O)O)nc2cc(N(CCCl)CCCl)ccc21" , what is its reported GI50?
72.7 µM

Record request: GI50 value, item "CCN(CC)CCNC(=O)c1cccc2c1-c1ccccc1C2=O"
> 100 µM

// for each compound in input: emit GI50
1. COC(=O)[C@]12CC[C@@H](C)[C@H](C)[C@@H]1C1=CC[C@@H]3[C@@]4(C)C(C=O)=C[C@@](C)(CO)[C@@H]4[C@H](O)C[C@@]3(C)[C@]1(C)CC2
2. O=C1C=C(NCCO)c2nccc3c2c1nc1ccccc13

1: 3.83 µM; 2: 23.4 µM
